- protocol_text: AUC (0 to t) in Wistar rat at 10 mg/kg, po by LC-MS/MS analysis
- Format: ADME, organism-based
- run_parameters: Wistar, in vivo
attribute_measured: AUC(0-t) (ng·h/mL)
Numbers only, in ng·h/mL.

Consider the following items and state reported AUC(0-t) for each.
1. COc1cccc2c1c(CN1CCN(C)CC1)cn2S(=O)(=O)c1ccc(C(C)C)cc1.Cl.Cl
2. COc1ccc2c(c1)c(CN1CCN(C)CC1)cn2S(=O)(=O)c1ccccc1Br.CS(=O)(=O)O.O

Output:
1: 138; 2: 784

Consider the following items and state reported AUC(0-t) for each.
1. CN1CCN(Cc2cn(S(=O)(=O)c3ccc(F)cc3)c3ccccc23)CC1
2. CN1CCN(Cc2cn(S(=O)(=O)c3ccccc3)c3ccccc23)CC1.Cl.Cl
3. COc1ccc2c(c1)c(CN1CCN(C)CC1)cn2S(=O)(=O)c1ccc(F)cc1.CS(=O)(=O)O.CS(=O)(=O)O
4. COc1ccc2c(c1)c(CN1CCN(C)CC1)cn2S(=O)(=O)c1ccc(C(C)C)cc1.CS(=O)(=O)O.CS(=O)(=O)O
5. CC(C)c1ccc(S(=O)(=O)n2cc(CN3CCN(C)CC3)c3cc(F)ccc32)cc1.Cl.Cl

Output:
1. 221
2. 2220
3. 249
4. 151
5. 7740

Data provenance is ChEMBL document CHEMBL4007422.
